- target: Amine oxidase [flavin-containing] A (Rattus norvegicus, UniProt P21396)
- Sequence (P21396 whole entry): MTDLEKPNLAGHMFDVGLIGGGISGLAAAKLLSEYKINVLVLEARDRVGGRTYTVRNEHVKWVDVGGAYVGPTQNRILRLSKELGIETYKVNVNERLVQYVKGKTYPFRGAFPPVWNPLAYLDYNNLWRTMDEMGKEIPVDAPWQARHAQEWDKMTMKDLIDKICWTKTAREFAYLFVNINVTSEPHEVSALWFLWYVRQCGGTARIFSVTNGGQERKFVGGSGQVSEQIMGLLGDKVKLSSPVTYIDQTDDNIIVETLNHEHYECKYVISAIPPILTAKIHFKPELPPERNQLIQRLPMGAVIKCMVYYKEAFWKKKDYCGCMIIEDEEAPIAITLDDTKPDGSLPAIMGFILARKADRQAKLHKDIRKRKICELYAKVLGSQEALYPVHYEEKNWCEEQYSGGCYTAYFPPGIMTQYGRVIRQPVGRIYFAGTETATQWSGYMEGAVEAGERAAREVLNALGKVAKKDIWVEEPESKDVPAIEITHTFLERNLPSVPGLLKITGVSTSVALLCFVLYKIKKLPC
- procedure_text: The compound was tested ex vivo for inhibition of Monoamine Oxidase A in rat brain
- Format: functional, tissue-based
assay_metric: ED50 (mg/kg)

compound="O=S1(=O)c2ccccc2Oc2cccc(C(O)CO)c21 (centres undefined)" target="Amine oxidase [flavin-containing] A (Rattus norvegicus, UniProt P21396)" assay_metric=ED50 unit_string=mg/kg observed_value=20
compound=C=Cc1cccc2c1S(=O)(=O)c1ccccc1O2 target="Amine oxidase [flavin-containing] A (Rattus norvegicus, UniProt P21396)" assay_metric=ED50 unit_string=mg/kg observed_value=20
compound=CCc1cccc2c1S(=O)(=O)c1ccccc1O2 target="Amine oxidase [flavin-containing] A (Rattus norvegicus, UniProt P21396)" assay_metric=ED50 unit_string=mg/kg observed_value=20
compound="CC(O)c1cccc2c1S(=O)(=O)c1ccccc1O2 (centres undefined)" target="Amine oxidase [flavin-containing] A (Rattus norvegicus, UniProt P21396)" assay_metric=ED50 unit_string=mg/kg observed_value=30

----------
# IC50 annotations
- target: Amine oxidase [flavin-containing] A (Rattus norvegicus)
- procedure_text: The compound was tested in vitro for inhibition of Monoamine Oxidase A from rat brain
assay_metric: IC50

compound="O=S1(=O)c2ccccc2Oc2cccc(C(O)CO)c21 (centres undefined)" observed_value="1200 nM"
compound=CC(=O)c1cccc2c1S(=O)(=O)c1ccccc1O2 observed_value="2000 nM"
compound=C=Cc1cccc2c1S(=O)(=O)c1ccccc1O2 observed_value="40 nM"
compound=O=S1(=O)c2ccccc2Oc2cccc(CCO)c21 observed_value="20 nM"
